Every entry's value here was drawn from patent US20190060473A1.

Biological target: Hsp90
Test: Binding affinity (Kd) by standard methods
readout.label: pKd
By convention, pKd is the negative base-10 log of a molar concentration.

Example results:
Read the entry `CCNC(=O)c1nnc(-c2cc(C(C)C)c(O)cc2O)n1-c1ccc(CN2CCC(C(=O)N3CC[C@H](C(=O)OC[C@@H](NC(=O)c4cc(-c5cc(NC(C)C)ncc5Cl)c[nH]4)c4cccc(Cl)c4)C3)CC2)c(F)c1` and write its reported pKd.
8.89

Read the entry `CCNC(=O)c1nnc(-c2cc(C(C)C)c(O)cc2O)n1-c1ccc(CN2CCC(C(=O)N3CCC(C(=O)OC[C@@H](NC(=O)c4cc(-c5cc(NC(C)C)ncc5Cl)c[nH]4)c4cccc(Cl)c4)CC3)CC2)c(F)c1` and write its reported pKd.
8.21

Read the entry CCNC(=O)c1nnc(-c2cc(C(C)C)c(O)cc2O)n1-c1ccc(C(=O)N(C)[C@@H](C(=O)N[C@H](C(=O)N(C)C([C@@H](C)CC)[C@@H](CC(=O)N2CCC[C@@H]2[C@@H](OC)[C@@H](C)C(=O)N[C@@H](C)[C@H](O)c2ccccc2)OC)C(C)C)C(C)C)cc1 (stereo partly drawn) and write its reported pKd.
9.11

Read the entry `CCNC(=O)c1nnc(-c2cc(C(C)C)c(O)cc2O)n1-c1ccc(CN2CCC(C(=O)N3CC(C(=O)OC[C@@H](NC(=O)c4cc(-c5cc(NC(C)C)ncc5Cl)c[nH]4)c4cccc(Cl)c4)C3)CC2)c(F)c1` and write its reported pKd.
9.01

Read the entry `CC(C)Nc1cc(-c2c[nH]c(C(=O)N[C@H](COC(=O)CC3CCN(C(=O)C4CCN(Cc5ccc(-n6c(O)nnc6-c6cc(C(C)C)c(O)cc6O)cc5F)CC4)CC3)c3cccc(Cl)c3)c2)c(Cl)cn1` and write its reported pKd.
9.06

Now for the molecule whose pKd we want.
Read the entry `CC(C)Nc1cc(-c2c[nH]c(C(=O)N[C@H](COC(=O)C3CCN(C(=O)C4CCN(Cc5ccc(-n6c(O)nnc6-c6cc(C(C)C)c(O)cc6O)cc5F)CC4)CC3)c3cccc(Cl)c3)c2)c(Cl)cn1` and write its reported pKd.
8.54
